# SYSTEM_UNDER_TEST: Phospholipase A2 group V (Homo sapiens) (UniProt P39877)
# Sequence (P39877 whole entry): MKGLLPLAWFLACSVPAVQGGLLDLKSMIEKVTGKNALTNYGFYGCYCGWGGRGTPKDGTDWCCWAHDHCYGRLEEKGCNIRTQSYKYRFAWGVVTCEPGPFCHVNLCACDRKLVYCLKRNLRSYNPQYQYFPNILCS
# METHOD_DESCRIPTION: Inhibition of human group-5 sPLA2 using Triton-X-100/PAPC/arachidonyl-1-14C PAPC substrate mixed micelles at 0.091 mole_fraction by modified dole assay relative to control
Recorded inhibition, one value per entry.
Return type: number; implicit unit %.

* CCCC[C@@H](COCC(=O)OC(C)(C)C)NC(=O)C(=O)CCCCc1ccccc1 | 57.5
* CCCC[C@H](NC(=O)C(=O)CCCCc1ccc(OC)cc1)C(=O)NCCCCC(=O)OC(C)(C)C | 56.3
* CCCC[C@H](NC(=O)C(=O)CCCCc1ccc(OC)cc1)C(=O)NCC(=O)OC(C)(C)C | 45.3
* CCCC[C@H](NC(=O)C(=O)CCCCc1ccc2ccccc2c1)C(=O)NCC(=O)OCC | 54.4

// next entry
Problem: Value lookup for inhibition; key = CCCC[C@H](NC(=O)C(=O)CCCCc1ccc(OC)cc1)C(=O)NCCC(=O)OC(C)(C)C
Solution: 32.5

###

# Tested on: Phospholipase A2 group VI, Homo sapiens
# METHOD_DESCRIPTION: Inhibition of human calcium-independent group-6A iPLA2 using Triton-X-100/PAPC/arachidonyl-1-14C PAPC substrate mixed micelles at 0.091 mole_fraction by modified dole assay relative to control
Recorded inhibition, one value per entry.

Here are 2 molecules together with their reported answers.
* CCCC[C@@H](NC(=O)C(=O)CCCCc1ccc(OC)cc1)C(=O)NCC(=O)OC(C)(C)C | > 95%
* COc1ccc(CCCCC(=O)C(=O)N[C@@H](CC(C)C)C(=O)NCC(=O)OC(C)(C)C)cc1 | > 95%

// next entry
Problem: Value lookup for inhibition; key = CCCC[C@@H](COCC(=O)O)NC(=O)C(=O)CCCCc1ccc(OC)cc1
Solution: < 25%

###

# Tested on: Phospholipase A2 group VI, Homo sapiens
# METHOD_DESCRIPTION: Inhibition of human calcium-independent group-6A iPLA2 using Triton-X-100/PAPC/arachidonyl-1-14C PAPC substrate mixed micelles at 0.091 mole_fraction by modified dole assay relative to control
Recorded inhibition, one value per entry.
Return type: number; implicit unit %.

• CCCC[C@H](NC(=O)C(=O)CCCCc1ccc(OC)cc1)C(=O)N[C@H](C)C(=O)OC(C)(C)C = 87.1
• CCCC[C@H](NC(=O)C(=O)CCCCc1ccccc1)C(=O)NCC(=O)OC(C)(C)C = 91.1
• CCCC[C@@H](COCC(=O)OC(C)(C)C)NC(=O)C(=O)CCCCc1ccc(OC)cc1 = 93.6
• CCCC[C@H](NC(=O)C(=O)CCCCc1ccc2ccccc2c1)C(=O)NCC(=O)OCC = 77.1
• CCCC[C@H](NC(=O)C(=O)CCCCc1ccc(OC)cc1)C(=O)NCC(=O)NCC(=O)OC(C)(C)C = 66.5

Problem: Value lookup for inhibition; key = CCCC[C@@H](COCC(=O)OC(C)(C)C)NC(=O)C(=O)CCCCc1ccccc1
Solution: 76

Problem: Value lookup for inhibition; key = CCCC[C@H](NC(=O)C(=O)CCCCc1ccc2ccccc2c1)C(=O)NCC(=O)OC(C)(C)C
Solution: 89.1

###

# Tested on: Phospholipase A2 group VI, Homo sapiens
# METHOD_DESCRIPTION: Inhibition of human calcium-independent group-6A iPLA2 using Triton-X-100/PAPC/arachidonyl-1-14C PAPC substrate mixed micelles at 0.091 mole_fraction by modified dole assay relative to control
MEASURED_PARAMETER: inhibition

Here are 4 compounds together with their reported answers.
• CCCC[C@H](NC(=O)C(=O)CCCCc1ccc2ccccc2c1)C(=O)NCC(=O)O = < 25%
• CCCC[C@H](NC(=O)C(=O)CCCCc1ccc(OC)cc1)C(=O)NCC(=O)OCc1ccccc1 = > 95%
• CCCC[C@H](NC(=O)C(=O)CCCCc1ccccc1)C(=O)NCC(=O)O = < 25%
• CCCC[C@H](NC(=O)C(=O)CCCCc1ccc(OC)cc1)C(=O)NCC(=O)OC(C)(C)C = > 95%

// next entry
Problem: Value lookup for inhibition; key = CCCC[C@H](NC(=O)C(=O)CCCCc1ccc(OC)cc1)C(=O)NCCCC(=O)OC(C)(C)C
Solution: > 95%
